- Tested on: NCI-H23
- ASSAY_DETAILS: relative viability (nuclei count vs DMSO), 5 days (fraction); higher = more cells survive
- CONDITION_INFO: first compound 0.1 µM
Classify: MET when relative viability is strictly less than 0.7; NOT MET when relative viability is not.

Some entries whose results are on file:
Q. Does the reported relative viability of CCN(CC)CCCCNc1ncc2cc(-c3cc(OC)cc(OC)c3)c(NC(=O)NC(C)(C)C)nc2n1 + NC(=O)Nc1cc(-c2cccc(F)c2)sc1C(=O)N[C@H]1CCCNC1 [AZD7762] (partner 0.2 µM) stay below 0.7?
A. MET

Q. Does the reported relative viability of CCN(CC)CCCCNc1ncc2cc(-c3cc(OC)cc(OC)c3)c(NC(=O)NC(C)(C)C)nc2n1 + CS(=O)(=O)CCNCc1ccc(-c2ccc3ncnc(Nc4ccc(OCc5cccc(F)c5)c(Cl)c4)c3c2)o1 [Lapatinib] (partner 2 µM) stay below 0.7?
A. NOT MET

Q. Does the reported relative viability of CCN(CC)CCCCNc1ncc2cc(-c3cc(OC)cc(OC)c3)c(NC(=O)NC(C)(C)C)nc2n1 + Cc1cc(Nc2cc(N3CCN(C)CC3)nc(Sc3ccc(NC(=O)C4CC4)cc3)n2)n[nH]1 [Tozasertib] (partner 0.1 µM) stay below 0.7?
A. MET

Q. Does the reported relative viability of CCN(CC)CCCCNc1ncc2cc(-c3cc(OC)cc(OC)c3)c(NC(=O)NC(C)(C)C)nc2n1 + N=C(N)NC(=N)NCCc1ccccc1 [Phenformin] (partner 250 µM) stay below 0.7?
A. NOT MET

Kindly review the next compound as well.
Q. Does the reported relative viability of CCN(CC)CCCCNc1ncc2cc(-c3cc(OC)cc(OC)c3)c(NC(=O)NC(C)(C)C)nc2n1 + COc1cccc2cc(-c3nc([C@H]4CC[C@H](C(=O)O)CC4)n4ncnc(N)c34)[nH]c12 [OSI-027] (partner 0.5 µM) stay below 0.7?
A. NOT MET
